The reported numbers originate from patent US9617226B2.

EXPERIMENTAL SYSTEM: human vasopressin V1b receptor (Homo sapiens (Human), UniProt P47901)
Sequence (P47901 whole entry): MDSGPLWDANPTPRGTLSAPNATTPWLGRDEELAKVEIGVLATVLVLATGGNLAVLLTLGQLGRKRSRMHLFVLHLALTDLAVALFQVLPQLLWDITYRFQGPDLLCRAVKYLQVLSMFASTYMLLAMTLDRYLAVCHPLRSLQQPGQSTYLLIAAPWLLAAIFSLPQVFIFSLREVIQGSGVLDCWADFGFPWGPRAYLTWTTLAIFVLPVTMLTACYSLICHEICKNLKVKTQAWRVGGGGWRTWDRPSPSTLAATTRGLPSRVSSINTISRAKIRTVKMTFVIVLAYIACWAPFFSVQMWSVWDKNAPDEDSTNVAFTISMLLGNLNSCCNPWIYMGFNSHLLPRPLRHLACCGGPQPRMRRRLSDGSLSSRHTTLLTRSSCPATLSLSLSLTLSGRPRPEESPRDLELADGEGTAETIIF
TEST DESCRIPTION: biochemical
I'd appreciate it if you could supply Ki values for the items below.

>  <COMPOUND>
CCCNC(=O)Cn1c(-c2cccc(Cl)c2)nc2ccc([C@H]3C[C@@H](CN4CCCCC4)C3)cc2c1=O [Example 28]

>  <Ki>
10 to 100 nM

$$$$
>  <COMPOUND>
CC(C)NC(=O)Cn1c(-c2cccc(Cl)c2)nc2ccc([C@H]3C[C@@H](CN(C)C)C3)cc2c1=O [Example 17]

>  <Ki>
10 to 100 nM

$$$$
>  <COMPOUND>
C[C@H](NC(=O)Cn1c(-c2cccc(Cl)c2)nc2ccc([C@H]3C[C@@H](CN4CCCCC4)C3)cc2c1=O)C(F)(F)F [Example 45]

>  <Ki>
1 to 10 nM

$$$$

Next:
Record CC(C)NC(=O)Cn1c(-c2cccc(Cl)c2)nc2ccc([C@H]3C[C@@H](CN4C[C@@H](C)O[C@@H](C)C4)C3)cc2c1=O [Example 42] has human vasopressin V1b receptor (Homo sapiens (Human), UniProt P47901) Ki equal to 1 to 10 nM
